# PROTOCOL DESCRIPTION: Chemical exchange rate (kex) of amide protons from 1H-NMR linewidth
# Type: physicochemical
# STUDY CONDITIONS: pH 6.0, 310K
# maps each entry to its Kex
QUANTITY: Kex

COMPOUND	RECORDED MEASUREMENT
CC(=O)N(CC(O)CO)c1c(I)c(C(=O)NCC(O)CO)c(I)c(C(=O)NCC(O)CO)c1I (stereo not shown) [Iohexol]	69 s⁻¹
CC(=O)N(CC(O)CN(C(C)=O)c1c(I)c(C(=O)NCC(O)CO)c(I)c(C(=O)NCC(O)CO)c1I)c1c(I)c(C(=O)NCC(O)CO)c(I)c(C(=O)NCC(O)CO)c1I (stereo not shown)	51 s⁻¹
O=C(NCC(O)CO)c1c(I)c(C(=O)NCC(O)CO)c(I)c(N(CCO)C(=O)CO)c1I (stereo not shown)	66 s⁻¹
CN(C(=O)CO)c1c(I)c(C(=O)NCC(O)CO)c(I)c(C(=O)NCC(O)CO)c1I (stereo not shown)	88 s⁻¹

---

# maps each entry to its Kex
# PROTOCOL DESCRIPTION: Chemical exchange rate (kex) of amide protons from 1H-NMR linewidth
# Assay type: physicochemical
# STUDY CONDITIONS: pH 6.3, 310K

COMPOUND	Kex, s⁻¹
CC(=O)N(CC(O)CO)c1c(I)c(C(=O)NCC(O)CO)c(I)c(C(=O)NCC(O)CO)c1I (stereo not shown) [Iohexol]	139
CN(C(=O)CO)c1c(I)c(C(=O)NCC(O)CO)c(I)c(C(=O)NCC(O)CO)c1I (stereo not shown) [Iomeprol]	164
CC(=O)N(CC(O)CN(C(C)=O)c1c(I)c(C(=O)NCC(O)CO)c(I)c(C(=O)NCC(O)CO)c1I)c1c(I)c(C(=O)NCC(O)CO)c(I)c(C(=O)NCC(O)CO)c1I (stereo not shown) [Iodixanol]	80
O=C(NCC(O)CO)c1c(I)c(C(=O)NCC(O)CO)c(I)c(N(CCO)C(=O)CO)c1I (stereo not shown) [Ioversol]	118

---

# PROTOCOL DESCRIPTION: Chemical exchange rate (kex) of amide protons from 1H-NMR linewidth
# Type: physicochemical
# STUDY CONDITIONS: pH 7.9, 310K

COMPOUND	Kex [s⁻¹]
CC(=O)N(CC(O)CO)c1c(I)c(C(=O)NCC(O)CO)c(I)c(C(=O)NCC(O)CO)c1I (stereo not shown) [Iohexol]	4056
CC(=O)N(CC(O)CN(C(C)=O)c1c(I)c(C(=O)NCC(O)CO)c(I)c(C(=O)NCC(O)CO)c1I)c1c(I)c(C(=O)NCC(O)CO)c(I)c(C(=O)NCC(O)CO)c1I (stereo not shown)	1332
O=C(NCC(O)CO)c1c(I)c(C(=O)NCC(O)CO)c(I)c(N(CCO)C(=O)CO)c1I (stereo not shown)	3660
CN(C(=O)CO)c1c(I)c(C(=O)NCC(O)CO)c(I)c(C(=O)NCC(O)CO)c1I (stereo not shown)	4389

---

# PROTOCOL DESCRIPTION: Chemical exchange rate (kex) of amide protons from 1H-NMR linewidth
# Assay type: physicochemical
# STUDY CONDITIONS: pH 7.0, 310K

COMPOUND	UNITS	Kex
CC(=O)N(CC(O)CN(C(C)=O)c1c(I)c(C(=O)NCC(O)CO)c(I)c(C(=O)NCC(O)CO)c1I)c1c(I)c(C(=O)NCC(O)CO)c(I)c(C(=O)NCC(O)CO)c1I (stereo not shown)	s⁻¹	476
CN(C(=O)CO)c1c(I)c(C(=O)NCC(O)CO)c(I)c(C(=O)NCC(O)CO)c1I (stereo not shown)	s⁻¹	794
O=C(NCC(O)CO)c1c(I)c(C(=O)NCC(O)CO)c(I)c(N(CCO)C(=O)CO)c1I (stereo not shown)	s⁻¹	913
CC(=O)N(CC(O)CO)c1c(I)c(C(=O)NCC(O)CO)c(I)c(C(=O)NCC(O)CO)c1I (stereo not shown) [Iohexol]	s⁻¹	923

---

# PROTOCOL DESCRIPTION: Chemical exchange rate (kex) of amide protons from 1H-NMR linewidth
# Type: physicochemical
# STUDY CONDITIONS: pH 7.4, 310K

MOLECULE	Kex [s⁻¹]
CC(=O)N(CC(O)CO)c1c(I)c(C(=O)NCC(O)CO)c(I)c(C(=O)NCC(O)CO)c1I (stereo not shown) [Iohexol]	1609
CN(C(=O)CO)c1c(I)c(C(=O)NCC(O)CO)c(I)c(C(=O)NCC(O)CO)c1I (stereo not shown)	1831
O=C(NCC(O)CO)c1c(I)c(C(=O)NCC(O)CO)c(I)c(N(CCO)C(=O)CO)c1I (stereo not shown)	1628
CC(=O)N(CC(O)CN(C(C)=O)c1c(I)c(C(=O)NCC(O)CO)c(I)c(C(=O)NCC(O)CO)c1I)c1c(I)c(C(=O)NCC(O)CO)c(I)c(C(=O)NCC(O)CO)c1I (stereo not shown)	1213
